Would you mind telling me the reported MIC of each entry?
test system: Haemophilus influenzae; assay: Antimicrobial activity against drug-susceptible Haemophilus influenzae 2 after 20 hrs by agar dilution method; type: functional; conditions: Haemophilus influenzae, 20 h; read-out: MIC
One number for each entry, in µg/mL.

compound="CCOC(=O)[C@H]1[C@H](C)O[C@@H](O[C@H]2[C@H](N(C)C)[C@@H](O)[C@H](O[C@H]3[C@@H](CC=O)C[C@@H](C)[C@@H](O)CN(C)CCC(/C=C/Cc4ccnc5ccccc45)NC(=O)C[C@@H](OC(=O)CC)[C@@H]3OC)O[C@@H]2C)C[C@@]1(C)O (mixture of isomers)" value=1

List the reported MIC of each compound below.
1. CCOC(=O)[C@H]1[C@H](C)O[C@@H](O[C@H]2[C@H](N(C)C)[C@@H](O)[C@H](O[C@H]3[C@@H](CC=O)C[C@@H](C)[C@@H](O)CN(C)CC(/C=C\Cc4ccnc5ccccc45)CCOC(=O)C[C@@H](OC(=O)CC)[C@@H]3OC)O[C@@H]2C)C[C@@]1(C)O (stereo in doubt; form 2)
2. CCOC(=O)[C@H]1[C@H](C)O[C@@H](O[C@H]2[C@H](N(C)C)[C@@H](O)[C@H](O[C@H]3[C@@H](CC=O)C[C@@H](C)[C@@H](O)CN(C)CCC(C/C=C/c4cnc5ccccc5c4)NC(=O)C[C@@H](OC(=O)CC)[C@@H]3OC)O[C@@H]2C)C[C@@]1(C)O (stereo in doubt; form 1)
3. CCOC(=O)[C@H]1[C@H](C)O[C@@H](O[C@H]2[C@H](N(C)C)[C@@H](O)[C@H](O[C@H]3[C@@H](CC=O)C[C@@H](C)[C@@H](O)CN(C)CC(/C=C/Cc4cncc5ccccc45)CCOC(=O)C[C@@H](OC(=O)CC)[C@@H]3OC)O[C@@H]2C)C[C@@]1(C)O (stereo not given in full)

Ans:
[32, 2, 2]

---

Provide the reported MIC of each item.
test system: Haemophilus influenzae; assay: Antimicrobial activity against drug-susceptible Haemophilus influenzae 4 after 20 hrs by agar dilution method; assay type: functional; conditions: Haemophilus influenzae, 20 h; read-out: MIC
Answers are plain numbers, in µg/mL.

Before answering, review these 4 worked examples.
chemical_smiles=CCOC(=O)[C@H]1[C@H](C)O[C@@H](O[C@H]2[C@H](N(C)C)[C@@H](O)[C@H](O[C@H]3[C@@H](CC=O)C[C@@H](C)[C@@H](OC(C)=O)CN(CCCCc4ccccc4)CCN(C)C(=O)C[C@@H](OC(=O)CC)[C@@H]3OC)O[C@@H]2C)C[C@@]1(C)OC(C)=O units_label=µg/mL value=16
chemical_smiles=CCOC(=O)[C@H]1[C@H](C)O[C@@H](O[C@H]2[C@H](N(C)C)[C@@H](O)[C@H](O[C@H]3[C@@H](CC=O)C[C@@H](C)[C@@H](OC(C)=O)CN(CCCCc4ccccc4)C[C@@H](C)NC(=O)C[C@@H](OC(=O)CC)[C@@H]3OC)O[C@@H]2C)C[C@@]1(C)OC(C)=O units_label=µg/mL value=16
chemical_smiles=CCOC(=O)[C@H]1[C@H](C)O[C@@H](O[C@H]2[C@H](N(C)C)[C@@H](O)[C@H](O[C@H]3[C@@H](CC=O)C[C@@H](C)[C@@H](O)CN(C)CCC[C@H](C/C=C/c4cccc5ccccc45)OC(=O)C[C@@H](OC(=O)CC)[C@@H]3OC)O[C@@H]2C)C[C@@]1(C)O units_label=µg/mL value=16
chemical_smiles=CCOC(=O)[C@H]1[C@H](C)O[C@@H](O[C@H]2[C@H](N(C)C)[C@@H](O)[C@H](O[C@H]3[C@@H](CC=O)C[C@@H](C)[C@@H](O)CN(C)CCC[C@H](C/C=C/c4cnc5ccccc5c4)OC(=O)C[C@@H](OC(=O)CC)[C@@H]3OC)O[C@@H]2C)C[C@@]1(C)O units_label=µg/mL value=8

Q: Could you share which MIC value was measured for CCOC(=O)[C@H]1[C@H](C)O[C@@H](O[C@H]2[C@H](N(C)C)[C@@H](O)[C@H](O[C@H]3[C@@H](CC=O)C[C@@H](C)[C@@H](O)CN(CCCCc4ccccc4)CCCOC(=O)C[C@@H](OC(=O)CC)[C@@H]3OC)O[C@@H]2C)C[C@@]1(C)OC(C)=O ?
Ans: 8

---

tested on: Haemophilus influenzae; test: Antimicrobial activity against drug-susceptible Haemophilus influenzae 4 after 20 hrs by agar dilution method; type: functional; conditions: Haemophilus influenzae, 20 h; read-out: MIC
Exercise: for every item that follows, state its recorded MIC.
Numbers only, in µg/mL.

Here's what some known entries look like.
compound="CCOC(=O)[C@H]1[C@H](C)O[C@@H](O[C@H]2[C@H](N(C)C)[C@@H](O)[C@H](O[C@H]3[C@@H](CC=O)C[C@@H](C)[C@@H](O)CN(C)CC(/C=C/Cc4cncc5ccccc45)CCOC(=O)C[C@@H](OC(=O)CC)[C@@H]3OC)O[C@@H]2C)C[C@@]1(C)O (some centres not stated)" recorded_metric=MIC units_label=µg/mL value=8
compound="CCOC(=O)[C@H]1[C@H](C)O[C@@H](O[C@H]2[C@H](N(C)C)[C@@H](O)[C@H](O[C@H]3[C@@H](CC=O)C[C@@H](C)[C@@H](O)CN(C)CCC(C/C=C/c4ccnc5ccccc45)NC(=O)C[C@@H](OC(=O)CC)[C@@H]3OC)O[C@@H]2C)C[C@@]1(C)O (single isomer, unassigned)" recorded_metric=MIC units_label=µg/mL value=32
compound="CCOC(=O)[C@H]1[C@H](C)O[C@@H](O[C@H]2[C@H](N(C)C)[C@@H](O)[C@H](O[C@H]3[C@@H](CC=O)C[C@@H](C)[C@@H](O)CN(C)CCC(CCCc4cnc5ccccc5c4)NC(=O)C[C@@H](OC(=O)CC)[C@@H]3OC)O[C@@H]2C)C[C@@]1(C)O (mixture of isomers)" recorded_metric=MIC units_label=µg/mL value=16
compound=CCOC(=O)[C@H]1[C@H](C)O[C@@H](O[C@H]2[C@H](N(C)C)[C@@H](O)[C@H](O[C@H]3[C@@H](CC=O)C[C@@H](C)[C@@H](O)CN(C)CCC[C@@H](CCCc4ccnc5ccccc45)OC(=O)C[C@@H](OC(=O)CC)[C@@H]3OC)O[C@@H]2C)C[C@@]1(C)O recorded_metric=MIC units_label=µg/mL value=8

Dear reader, for each entry below, please note its MIC.
1. CCOC(=O)[C@H]1[C@H](C)O[C@@H](O[C@H]2[C@H](N(C)C)[C@@H](O)[C@H](O[C@H]3[C@@H](CC=O)C[C@@H](C)[C@@H](O)CN(CCCCc4ccccc4)CCC(C)NC(=O)C[C@@H](OC(=O)CC)[C@@H]3OC)O[C@@H]2C)C[C@@]1(C)OC(C)=O (stereo in doubt; form 1)
2. CCOC(=O)[C@H]1[C@H](C)O[C@@H](O[C@H]2[C@H](N(C)C)[C@@H](O)[C@H](O[C@H]3[C@@H](CC=O)C[C@@H](C)[C@@H](O)CN(CCCCc4ccccc4)CC[C@@H](C)OC(=O)C[C@@H](OC(=O)CC)[C@@H]3OC)O[C@@H]2C)C[C@@]1(C)OC(C)=O

Ans:
1. 4
2. 8

Q: Find the recorded MIC belonging to CCOC(=O)[C@H]1[C@H](C)O[C@@H](O[C@H]2[C@H](N(C)C)[C@@H](O)[C@H](O[C@H]3[C@@H](CC=O)C[C@@H](C)[C@@H](O)CN(CCCCc4ccccc4)CCC[C@@H](C)OC(=O)C[C@@H](OC(=O)CC)[C@@H]3OC)O[C@@H]2C)C[C@@]1(C)OC(C)=O and report it.
Ans: 16

---

tested on: Streptococcus pneumoniae; experiment: Antimicrobial activity against Streptococcus pneumoniae 10 expressing mefA after 20 hrs by agar dilution method; format: functional; conditions: Streptococcus pneumoniae, 20 h; read-out: MIC
Hi there, I'd appreciate the recorded MIC for every entry that follows.
A bare number is not enough; add the unit after it.

compound="CCOC(=O)[C@H]1[C@H](C)O[C@@H](O[C@H]2[C@H](N(C)C)[C@@H](O)[C@H](O[C@H]3[C@@H](CC=O)C[C@@H](C)[C@@H](O)CN(C)CC(/C=C\\Cc4cnc5ccccc5c4)CCOC(=O)C[C@@H](OC(=O)CC)[C@@H]3OC)O[C@@H]2C)C[C@@]1(C)O (some centres not stated)" target_or_test_system="Streptococcus pneumoniae" value="0.13 µg/mL"

Shifting focus to the compound that follows.
Q: Any idea what its MIC is? The compound is CCOC(=O)[C@H]1[C@H](C)O[C@@H](O[C@H]2[C@H](N(C)C)[C@@H](O)[C@H](O[C@H]3[C@@H](CC=O)C[C@@H](C)[C@@H](O)CN(C)CCC(CCCc4ccnc5ccccc45)NC(=O)C[C@@H](OC(=O)CC)[C@@H]3OC)O[C@@H]2C)C[C@@]1(C)O (stereo in doubt; form 1)
Ans: 0.13 µg/mL

This collection of values is drawn from ChEMBL document CHEMBL1151705.
